Below, each of the molecules is paired with its reported TGI value.
- Test system: EKVX NSCLC
- protocol_summary: NCI tumour cell line growth inhibition, 48 h

See these solved cases before continuing.
O=C(NCc1ccccc1)c1c(O)c2ccccc2[nH]c1=O
> 100 µM
O=C(Nc1cccc([N+](=O)[O-])c1)c1cc2ccccc2cc1O
8.2 µM
O=C(O)CCCc1ccc2c(c1)CC1(C2)Cc2ccc(CCCC(=O)O)cc2C1
> 100 µM

State its TGI: O=c1oc2ccccc2c(O)c1Cc1cccc(Cc2c(O)c3ccccc3oc2=O)c1
> 100 µM

State its TGI: COC(=O)C(C(=O)OC)C1CC(=O)c2c(Br)sc(Br)c21 (stereo unspecified)
32.4 µM

State its TGI: COC1=CC(=O)c2c(cc(COP(=O)(N(C)CCBr)N(C)CCBr)n2C)C1=O
6.55 µM

State its TGI: CC(=O)O[C@H]1C(=O)[C@@]2(C)C(C(OC(=O)c3ccccc3)[C@]3(O)CC(OC(=O)C(O)C(NC(=O)c4ccccc4)c4ccc(C)cc4)C(C)=C1C3(C)C)[C@]1(OC(C)=O)CO[C@@H]1C[C@@H]2O (stereo partly specified)
> 25 µM

State its TGI: COc1ccccc1N1C(=O)/C(=C\c2cccc(Oc3ccccc3)c2)S(=O)(=O)C1c1ccccc1 (stereo unspecified)
> 100 µM

State its TGI: Cc1nc2sc(C(=O)Nc3cccc(Cl)c3C)c(N)c2cc1C(C)O (stereo unspecified)
> 77 µM

State its TGI: S=C(Nc1ccc2c(c1)Cc1ccccc1-2)Nc1ccc2c(c1)Cc1ccccc1-2
> 100 µM

State its TGI: C=CCn1c(=O)c2ccccc2[n+]2c(-c3cccc([N+](=O)[O-])c3)csc12
> 100 µM

====

- System: ACHN renal
- protocol_summary: NCI tumour cell line growth inhibition, 48 h
Below, each of the compounds is paired with its reported TGI value.

See these solved cases before continuing.
N#Cc1c(C#N)c(-c2ccccc2)n(/N=C\c2ccccc2)c1N
> 100 µM
O=C1C(=Cc2ccccc2[N+](=O)[O-])N=C(c2ccccc2)N1n1c(-c2ccccc2)nc2ccccc2c1=O
> 100 µM
S=c1[nH]nc(SCc2ccccc2Cl)c2[nH]cnc12
> 100 µM

State its TGI: N[C@H](C(=O)O)[C@@H](Cl)CC(=O)O
> 100 µM

State its TGI: CCC1(CC)C(=O)[N-]C(=O)[N-]C1=O.[Au+].[Au+].c1ccc([PH+](c2ccccc2)c2ccccc2)cc1.c1ccc([PH+](c2ccccc2)c2ccccc2)cc1
3.07 µM

State its TGI: c1ccc2c(c1)c1c3n2-c2cc(on2)C3CCC1 (stereo not given)
> 100 µM

State its TGI: CC(=O)O[C@H]1C(=O)[C@@]2(C)C(C(OC(=O)c3ccccc3)[C@]3(O)CC(OC(=O)C(O)C(NC(=O)c4ccccc4)c4ccc(C)cc4)C(C)=C1C3(C)C)[C@]1(OC(C)=O)CO[C@@H]1C[C@@H]2O (stereo not given in full)
> 25 µM

State its TGI: CCOC(=O)c1c(-c2ccc(OC)c(O)c2)c(C#N)c(=S)n(C2OC(CO)C(O)C(O)C2O)c1-c1ccccc1 (stereo not given)
> 100 µM

State its TGI: c1ccc(-c2cnc3nc4ccccc4nc3n2)cc1
15.4 µM

State its TGI: COc1cc(-c2[o+]c3cc(O)cc(OC4OC(CO)C(O)C(O)C4O)c3cc2OC2OC(CO)C(O)C(O)C2O)cc(OC)c1O (stereo not given)
> 100 µM

====

Below, each of the compounds is paired with its reported TGI value.
- Tested on: SF-295 CNS
- protocol_summary: NCI tumour cell line growth inhibition, 48 h

See these solved cases before continuing.
N#Cc1ccc2c(c1)C(=O)c1c-2n(CCCN=[N+]=[N-])c(=O)c2cc([N+](=O)[O-])ccc12
> 50 µM
CCOC(=O)N1C(=S)C(C(=O)OC)(C(=O)OC)N=C1C
> 100 µM
CC(=O)O[C@H](C[C@H](C(C)C)N(C)C(=O)[C@@H](NC(=O)[C@H]1CCCCN1C)C(C)(C)C)c1nc(C(=O)N[C@@H](Cc2ccccc2)C[C@H](C)C(=O)O)cs1
> 8.94 µM
c1cc2ccc1CNCCN1CCNCc3ccc(cc3)Oc3ccc(cc3)CNCCN(CCNCc3ccc(cc3)O2)CCNCc2ccc(cc2)Oc2ccc(cc2)CNCC1
3.18 µM
CC1(C)Oc2ccc3c(=O)c4ccccc4oc3c2C1C(=O)O (stereo not drawn)
> 100 µM
O=C(Nc1ccccc1C(=O)Nc1nccs1)c1ccccc1
> 100 µM
O=C(O)c1oc2cccc3c2c1CCC3
> 100 µM

Consider now this further compound.
Fill: TGI (SF-295 CNS) for this compound CCC1(CC)C(=O)[N-]C(=O)[N-]C1=O.[Au+].[Au+].c1ccc([PH+](c2ccccc2)c2ccccc2)cc1.c1ccc([PH+](c2ccccc2)c2ccccc2)cc1
2.91 µM

====

- System: IGROV1 ovarian
- protocol_summary: NCI tumour cell line growth inhibition, 48 h
Below, each of the compounds is paired with its reported TGI value.

See these solved cases before continuing.
CC(=O)NS(=O)(=O)c1ccc(-n2nc(-c3ccccc3)cc2C2=CC(=O)C=CC2=O)cc1
> 100 µM
C=CCn1c(=O)c2ccccc2[n+]2c(-c3cccc([N+](=O)[O-])c3)csc12
> 100 µM
C=C1C(=O)O[C@H]2C3C(=C(C)CC[C@@H]12)C(=O)[C@@H]1OC31C (stereo not given in full)
11.8 µM
FC(F)(F)c1cc(NC2=NCCN=C(Nc3cc(C(F)(F)F)cc(C(F)(F)F)c3)SS2)cc(C(F)(F)F)c1
26.3 µM
O=c1c(-c2ccc(O)cc2)coc2cc(O)cc(O)c12
> 100 µM
O=C(Nc1cccc([N+](=O)[O-])c1)c1cc2ccccc2cc1O
> 26.1 µM
COc1ccc(NS(=O)c2cccc(C)c2)cc1 (stereo not given)
> 100 µM
O=C(O)Cc1cc(=O)[nH]c2c1C(=O)CCC2
> 100 µM
CC(=O)[C@H]1CCC2[C@@H]3CC=C4C(O)C(OS(=O)(=O)O)CC[C@]4(C)C3CC[C@@]21C (stereo not given in full)
> 100 µM
OC(O)(C(F)(F)F)C(F)(F)F
> 100 µM

State its TGI: CC[C@H](C)[C@H](NC(=O)c1nccn1C)C(=O)N(C)[C@H](C[C@@H](OC(C)=O)c1nc(C(=O)N[C@@H](Cc2ccccc2)C[C@H](C)C(=O)OC)cs1)C(C)C
> 33.3 µM

State its TGI: CC1(C)CC2(C)OC(=N)C1(C#N)C2(C#N)C#N (stereo not given)
29.9 µM

State its TGI: C=C1C(=O)O[C@H]2[C@H]1CC/C(COC(=O)/C=C/c1c[nH]c3ccccc13)=C\CC[C@@]1(C)O[C@@H]21
0.484 µM

State its TGI: COC1=CC(=O)c2c(cc(COP(=O)(N(C)CCBr)N(C)CCBr)n2C)C1=O
19.2 µM

State its TGI: C/C(=C\CNc1nc(Cl)nc2nc[nH]c12)CO
> 100 µM

====

- Test system: A549 NSCLC
- protocol_summary: NCI tumour cell line growth inhibition, 48 h
readout_label: TGI

See these solved cases before continuing.
COC(=O)c1nn(C(=N)c2ccc(Cl)cc2)c2c1CCCCC2
> 100 µM
COc1ccc(NS(=O)c2cccc(C)c2)cc1 (configuration not stated)
> 100 µM
O=C(O)c1ccc2cccnc2c1O
25.8 µM
O=C(NCc1cccnc1)C(=O)NCc1cccnc1
> 100 µM
COc1cccc2ccc3c(c12)C(=O)OC31CCc2c(C)cccc21 (configuration not stated)
> 46.4 µM

State its TGI: COc1ccc(C2=NNC(=O)c3ccccc3N2c2nc(-c3cccs3)nc3ccc(Br)cc23)cc1
> 100 µM

State its TGI: Cc1cccc(O)c(=O)c1
> 100 µM

State its TGI: COc1ccc(N2C(=O)C(N3C(=O)C=CC3=O)C2C=O)cc1 (configuration not stated)
> 100 µM

====

- System: RXF 393 renal
- protocol_summary: NCI tumour cell line growth inhibition, 48 h
readout_label: GI50

See these solved cases before continuing.
Cc1cc(Cl)ccc1NC(=O)NC(C)(C)COC(=O)Nc1cccc(Cl)c1
17.5 µM
Cc1ccc(S(=O)(=O)c2ccsc2N)cc1
63.9 µM
N#Cc1ncc(N2C(=O)C3(CCC3)N(c3ccc(OC4CCNCC4)nc3)C2=S)cc1C(F)(F)F
12.1 µM
FC(F)(F)c1cc(NC2=NCCN=C(Nc3cc(C(F)(F)F)cc(C(F)(F)F)c3)SS2)cc(C(F)(F)F)c1
2.66 µM
O=c1oc2cc(OS(=O)(=O)c3ccccc3)ccc2c2c1CCCCC2
4.55 µM
CC1(C)N=C(N)N=C(N)N1c1ccc(OCCCCNC(=O)c2ccc(S(=O)(=O)F)cc2)c(Cl)c1
8.99 µM
O=S1(=O)CC(Br)C(Br)C1 (stereo not drawn)
1.11 µM

Consider now this further molecule.
State its GI50: O=C(Nc1ccc(-c2ccnc(Nc3ccc(N4CCOCC4)cc3)n2)cc1)C1CCCN1 (stereo not drawn)
2.23 µM
